Field: OD450. Provide a value for each of the binders that follow.
- MEASURED TARGET: T1, recombinant His-tagged Der p1 (dust mite, UniProt P08176 99-320, limits assumed)
- T1 construct: Recombinant His-tagged protein made by the applicant; also called Der p1-His; Der pl; not shown: His tag
- T1 sequence (looked up): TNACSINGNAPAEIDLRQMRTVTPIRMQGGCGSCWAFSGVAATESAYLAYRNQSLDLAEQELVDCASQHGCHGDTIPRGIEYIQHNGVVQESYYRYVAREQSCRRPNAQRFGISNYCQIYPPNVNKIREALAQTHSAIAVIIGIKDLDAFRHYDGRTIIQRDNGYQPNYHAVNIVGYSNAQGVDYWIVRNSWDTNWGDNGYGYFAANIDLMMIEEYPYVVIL
- ASSAY INFO: ELISA, Der p1 on plate, biotinylated peptide at 1.111, duplicate 1
No end group written: not given here.
I only need the number, in OD450, no unit after it.

OD450 lookup needed for VVAFGIS (also: biotinylated, site not given here, 7-amino acid peptide from a phage display library) [SDAB22110-2-G1] , thanks. 0.102

OD450 lookup needed for AVVSFYP (also: biotinylated, site not given here, 7-amino acid peptide from a phage display library) [SDAB22110-2-F1] , thanks. 0.131

OD450 lookup needed for GIHMALM (also: biotinylated, site not given here, 7-amino acid peptide from a phage display library) [SDAB22110-2-B2] , thanks. 0.089

OD450 lookup needed for LTGYGMS (also: biotinylated, site not given here, 7-amino acid peptide from a phage display library) [SDAB22110-2-D9] , thanks. 0.095

OD450 lookup needed for HSGPECG (also: biotinylated, site not given here, 7-amino acid peptide from a phage display library) [SDAB22110-2-D3] , thanks. 2.16

OD450 lookup needed for YPTWAYR (also: biotinylated, site not given here, 7-amino acid peptide from a phage display library) [SDAB22110-2-C3] , thanks. 0.104
